Test system: A549/ATCC NSCLC
Assay Name: NCI-60 one-dose screen, 48 h
Condition Context: 10 µM
This is part of a sample that, as a whole, favours compounds with a hit. Of some 83,000 tested, about 20% had one in any assay. Activity calls are given as the source filed them. Rule for the calls: active = growth percent below 10; inactive = the rest.
Form entry, call: pick from active, inactive

INSERT INTO assay_data (compound, qualitative_label) VALUES
  ('CSC1=NCCCC1', 'inactive'),
  ('N#CCCN(NC(=O)OCc1ccccc1)C(=O)OCc1ccccc1', 'inactive'),
  ('COc1ccc(-c2nnc(-c3c(-c4ccccc4)nc4ncccn34)o2)cc1OC', 'inactive'),
  ('CC(=O)N1C/C(=C/c2ccc(Cl)cc2)C(=O)/C(=C/c2ccc(Cl)cc2)C1', 'active');

Per the records of this test, what outcome belongs to COc1ccccc1CNCCCN1C(=O)c2ccc3c4c(ccc(c24)C1=O)C(=O)N(CCCN)C3=O ?
active

Per the records of this test, what outcome belongs to O=C1/C(=C\c2ccc(F)cc2)CN(C(=O)c2ccccc2)C/C1=C\c1ccc(F)cc1 ?
inactive

Per the records of this test, what outcome belongs to COc1ccc(-c2cc(/C=C/C(=O)c3cc(OC)c(OC)c(OC)c3)[nH]n2)cc1OC ?
inactive
